Tested on: THP-1 cells
Assay Info: SYK-dependent TNF-α release assay (IgG stimulation), ELISA
Assay type: cell-based
Setup Conditions: THP-1 cells on human IgG-coated plate, 18 hours; read-out: TNF-α release inhibition, IgG stimulation IC50
Measure: pIC50
When answering, recall that pIC50 equals minus log10 of the concentration in mol/L, and write that number alone.

// known answers, use as guide
INSERT INTO measurements (compound, observed_value) VALUES
  ('Cc1nn(-c2ccnc(Nc3ccc4c(c3)c(C(=O)C3CC3)cn4C)n2)cc1CN1CC(C)(O)CO1 (stereo not drawn)', 6.10),
  ('Cc1nn(-c2ccnc(Nc3ccc4c(c3)c(S(C)(=O)=O)nn4C)n2)cc1CN1C[C@H](O)CO1', 5.97),
  ('CCn1cc(C(=O)C2CC2)c2cc(Nc3nccc(-n4cc(CN5C[C@H](O)CO5)c(C)n4)n3)ccc21', 7.24),
  ('Cc1nn(-c2ccnc(Nc3ccc4[nH]cc(C(=O)C5CC5)c4c3)n2)cc1CN1C[C@H](O)CO1', 6.92),
  ('CCn1cc(C(=O)C2CC2)c2cc(Nc3nccc(-n4cc(CN5C[C@@H](O)CO5)c(C)n4)n3)ccc21', 7.05);

Give its pIC50 value. Item: `CCOC(=O)n1cc(C(C)=O)c2cc(Nc3nccc(-n4cc(CN5C[C@H](O)CO5)c(C)n4)n3)ccc21`
6.53

Would you mind telling me what pIC50 value was observed for `Cc1nn(-c2ccnc(Nc3ccc4[nH]cc(C(=O)C(F)(F)F)c4c3)n2)cc1CN1C[C@H](O)CO1` ?
7.22

# pIC50 lookup, item `Cc1nn(-c2ccnc(Nc3ccc4c(c3)c(C(=O)C3CC3)cn4C(C)C)n2)cc1CN1C[C@H](O)CO1`
7.01

Any idea what its pIC50 is? The compound is `Cc1nn(-c2ccnc(Nc3ccc4c(c3)c(C(=O)C(C)C)cn4C)n2)cc1CN1C[C@H](O)CO1`
7.17

Look up pIC50 for this compound: `CCn1cc(C(=O)C2CC2)c2cc(Nc3nccc(-n4cc(C)c(CN5C[C@H](O)CO5)c4)n3)ccc21`
7.15

What pIC50 value was documented for this compound, `Cc1nn(-c2ccnc(Nc3ccc4c(c3)c(C(=O)C3CC3)cn4C)n2)cc1CN1C[C@H](O)CO1` ?
7.28

Reported pIC50 for `Cc1nn(-c2ccnc(Nc3ccc4c(c3)c(C(=O)C3CC3)cn4CCF)n2)cc1CN1C[C@H](O)CO1` : what is it?
6.95

// lookup pIC50 for `Cc1nn(-c2ccnc(Nc3ccc4c(c3)c(Cl)c(C)n4C)n2)cc1CN1C[C@H](O)CO1`
6.71

I have this compound here, `CC(=O)c1cn(C)c2ccc(Nc3nccc(-n4cc(CN5C[C@H](O)CO5)c(C)n4)n3)cc12` , and I need its recorded pIC50.
6.64

# get_value(readout='pIC50', item= `Cc1nn(-c2ccnc(Nc3ccc4c(c3)c(C(=O)C(F)(F)F)cn4C)n2)cc1CN1C[C@H](O)CO1` )
7.32
